- Test target: FAK FAT domain (biotinylated Avitag-FAT protein) (Homo sapiens, UniProt Q05397)
- Construct: biotinylated Avitag-FAT protein was diluted in running buffer
- Test method notes: Surface plasmon resonance (SPR) binding to immobilised FAT protein
- Conditions used: FAT protein immobilised, peptide 200 μM-0.01 μM, 1:1 binding model; read-out: SPR KD
Positions of bridges follow the written chain, without caps; N, C: chain ends. Non-standard residues stand in square brackets, D forms with d. Residues, ends and D or L forms follow the SMILES beside them. S5 = C=CCCC[C@](C)(N)C(=O)O
Readout kind: Kd (µM)

[[record]]
compound = "CC(=O)N[C@@H](CC(N)=O)C(=O)N[C@@H](CC(C)C)C(=O)N[C@@H](CCCNC(=N)N)C(=O)N[C@@H](CCC(=O)O)C(=O)N[C@@]1(C)CCCC=CCCC[C@@](C)(C(=O)N[C@@H](CCCNC(=N)N)C(=O)N[C@@H](CCC(=O)O)C(=O)N[C@@H](CC(C)C)C(=O)N[C@@H](CC(N)=O)C(N)=O)NC(=O)[C@H](CC(C)C)NC(=O)[C@H](CCCNC(=N)N)NC(=O)[C@H](CC(=O)O)NC1=O [Peptide 1931, Ac-NLRES5DRLS5RELN-NH2] (Ac-NLRE[S5]DRL[S5]RELN-NH2; staple 5-9)"
numeric_readout = 13.7

